measured_target: homomeric α1 GlyR (Homo sapiens, UniProt P23415)
Construct: expressed in transfected cells; host or cells: CHO cells
Sequence (P23415 29-449 isoform P23415-2 limits assumed): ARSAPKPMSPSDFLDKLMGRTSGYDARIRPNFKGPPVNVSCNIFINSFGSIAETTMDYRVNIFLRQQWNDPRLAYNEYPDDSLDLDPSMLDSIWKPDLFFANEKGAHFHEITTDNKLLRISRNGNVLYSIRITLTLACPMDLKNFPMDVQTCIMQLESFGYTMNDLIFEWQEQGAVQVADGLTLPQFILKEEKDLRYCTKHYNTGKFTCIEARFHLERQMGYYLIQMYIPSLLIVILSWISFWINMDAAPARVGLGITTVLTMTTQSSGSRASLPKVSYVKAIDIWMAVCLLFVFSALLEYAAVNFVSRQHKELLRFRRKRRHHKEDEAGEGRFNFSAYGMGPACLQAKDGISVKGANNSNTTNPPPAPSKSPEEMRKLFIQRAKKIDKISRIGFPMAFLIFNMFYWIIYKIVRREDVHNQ
assay_explanation: Whole-cell patch-clamp of glycine-induced currents, α1 GlyR expressed in CHO cells
Type: cell-based
experimental_setup: +80 mV; glycine 30 μM; representative; read-out: NFA IC50 (representative IC50 curve)
quantity: pIC50
# reply with the number alone; pIC50 is -log10 of concentration in mol/L

**Q:** So what does the record say about pIC50 for O=C(O)c1cccnc1Nc1cccc(C(F)(F)F)c1 ?
**A:** 3.75

* * *

measured_target: G254A-α1 GlyR (Homo sapiens, UniProt P23415, G282A)
Construct: expressed in transfected cells; host or cells: CHO cells
Sequence (P23415 29-449 isoform P23415-2 G282A limits assumed): as the sequence (P23415 29-449 isoform P23415-2 limits assumed) above, with G254A counted along it
assay_explanation: Whole-cell patch-clamp of glycine-induced currents, G254A-α1 GlyR mutant expressed in CHO cells
Type: cell-based
experimental_setup: at negative potentials; glycine 30 μM; ramp protocol; mean ± SEM; read-out: IC50 of NFA
quantity: IC50 (µM)
A number alone suffices; assume µM.

**Q:** So what does the record say about IC50 for O=C(O)c1cccnc1Nc1cccc(C(F)(F)F)c1 ?
**A:** 257

Entry source: paper PMC5432571
